target_or_system: Tyrosine-protein phosphatase non-receptor type 1 (Homo sapiens, UniProt P18031)
test_protocol: Inhibition of PTP1B (unknown origin)
measurement_setup: read-out: IC50
measured_property: IC50 (nM)

compound: CC1(C)CC[C@]2(CCCCC(=O)NC(Cc3ccccc3)C(=O)O)CC[C@]3(C)C(=CC[C@@H]4[C@@]5(C)CC[C@H](OCc6ccc(C(=O)O)cc6)C(C)(C)[C@@H]5CC[C@]43C)[C@@H]2C1 (stereo not given in full)
target_or_system: Tyrosine-protein phosphatase non-receptor type 1 (Homo sapiens, UniProt P18031)
IC50 [nM]: 150
--
compound: COc1ccc(CC(NC(=O)C[C@]23CCC(C)(C)C[C@H]2C2=CC[C@@H]4[C@@]5(C)CC[C@H](O)C(C)(C)[C@@H]5CC[C@@]4(C)[C@]2(C)CC3)C(=O)O)cc1OC (stereo not given in full)
target_or_system: Tyrosine-protein phosphatase non-receptor type 1 (Homo sapiens, UniProt P18031)
IC50 [nM]: 820
--
compound: COc1ccc(CC(NC(=O)C[C@]23CCC(C)(C)C[C@H]2C2=CC[C@@H]4[C@@]5(C)CC[C@H](O)C(C)(C)[C@@H]5CC[C@@]4(C)[C@]2(C)CC3)C(=O)O)cc1 (stereo not given in full)
target_or_system: Tyrosine-protein phosphatase non-receptor type 1 (Homo sapiens, UniProt P18031)
IC50 [nM]: 600

[I] CC1(C)CC[C@]2(CC(=O)NC(Cc3ccc4c(c3)OCO4)C(=O)O)CC[C@]3(C)C(=CC[C@@H]4[C@@]5(C)CC[C@H](O)C(C)(C)[C@@H]5CC[C@]43C)[C@@H]2C1 (stereo not given in full)
[II] Cc1ccc(CC(NC(=O)C[C@]23CCC(C)(C)C[C@H]2C2=CC[C@@H]4[C@@]5(C)CC[C@H](O)C(C)(C)[C@@H]5CC[C@@]4(C)[C@]2(C)CC3)C(=O)O)cc1 (stereo not given in full)
Query: Form field 'greater IC50' accepts I or II ; which applies? Identify your selection by its label.
Reply: II

###

target_or_system: Tyrosine-protein phosphatase non-receptor type 1 (Homo sapiens)
Sequence (P18031 whole entry): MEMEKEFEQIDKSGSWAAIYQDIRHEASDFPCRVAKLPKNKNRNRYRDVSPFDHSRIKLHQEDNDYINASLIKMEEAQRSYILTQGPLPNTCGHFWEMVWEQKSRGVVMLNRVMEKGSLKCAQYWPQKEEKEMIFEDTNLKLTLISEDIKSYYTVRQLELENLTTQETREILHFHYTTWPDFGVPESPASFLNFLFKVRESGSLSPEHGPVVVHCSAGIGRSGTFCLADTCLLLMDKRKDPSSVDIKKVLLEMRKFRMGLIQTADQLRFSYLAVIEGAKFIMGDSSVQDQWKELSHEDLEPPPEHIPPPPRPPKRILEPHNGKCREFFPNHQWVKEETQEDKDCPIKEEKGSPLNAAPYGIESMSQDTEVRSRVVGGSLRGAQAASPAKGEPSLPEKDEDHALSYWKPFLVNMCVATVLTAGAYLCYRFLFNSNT
test_protocol: Inhibition of PTP1B (unknown origin)
measurement_setup: read-out: IC50
pIC50: −log10 of the molar value.
measured_property: pIC50

molecule: CC1(C)CC[C@]2(CC(=O)NC(Cc3ccccc3Cl)C(=O)O)CC[C@]3(C)C(=CC[C@@H]4[C@@]5(C)CC[C@H](O)C(C)(C)[C@@H]5CC[C@]43C)[C@@H]2C1 (some centres not stated)
target_or_system: Tyrosine-protein phosphatase non-receptor type 1 (Homo sapiens)
pIC50: 6.25

molecule: CC1(C)CC[C@]2(C(=O)NC(Cc3ccccc3)C(=O)O)CC[C@]3(C)C(=CC[C@@H]4[C@@]5(C)CC[C@H](O)C(C)(C)[C@@H]5CC[C@]43C)[C@@H]2C1 (some centres not stated)
target_or_system: Tyrosine-protein phosphatase non-receptor type 1 (Homo sapiens)
pIC50: 5.48

molecule: COc1cccc(CC(NC(=O)C[C@]23CCC(C)(C)C[C@H]2C2=CC[C@@H]4[C@@]5(C)CC[C@H](O)C(C)(C)[C@@H]5CC[C@@]4(C)[C@]2(C)CC3)C(=O)O)c1OC (some centres not stated)
target_or_system: Tyrosine-protein phosphatase non-receptor type 1 (Homo sapiens)
pIC50: 6.18

[I] CC1(C)CC[C@]2(C(=O)OCCC(=O)O)CC[C@]3(C)C(=CC[C@@H]4[C@@]5(C)CC[C@H](O)C(C)(C)[C@@H]5CC[C@]43C)[C@@H]2C1
[II] COc1ccccc1CC(NC(=O)C[C@]12CCC(C)(C)C[C@H]1C1=CC[C@@H]3[C@@]4(C)CC[C@H](O)C(C)(C)[C@@H]4CC[C@@]3(C)[C@]1(C)CC2)C(=O)O (some centres not stated)
Query: Hi! Which is lower in terms of pIC50, the first one I or the second one II ? Identify your selection by its label.
Reply: I
(I: 5.68, II: 6.28)

[A] CC1(C)CC[C@]2(C(=O)OCCCCCCCCC(=O)O)CC[C@]3(C)C(=CC[C@@H]4[C@@]5(C)CC[C@H](O)C(C)(C)[C@@H]5CC[C@]43C)[C@@H]2C1
[B] CC1(C)CC[C@]2(C(=O)NC(CCC(=O)O)C(=O)O)CC[C@]3(C)C(=CC[C@@H]4[C@@]5(C)CC[C@H](O)C(C)(C)[C@@H]5CC[C@]43C)[C@@H]2C1 (some centres not stated)
Query: Form field 'greater pIC50' accepts A or B ; which applies? Identify your selection by its label.
Reply: A

[P] CC1(C)CC[C@]2(CC(=O)NC(Cc3ccc(Cl)cc3)C(=O)O)CC[C@]3(C)C(=CC[C@@H]4[C@@]5(C)CC[C@H](O)C(C)(C)[C@@H]5CC[C@]43C)[C@@H]2C1 (some centres not stated)
[Q] CC1(C)CC[C@]2(C(=O)OCCCCC(=O)O)CC[C@]3(C)C(=CC[C@@H]4[C@@]5(C)CC[C@H](O)C(C)(C)[C@@H]5CC[C@]43C)[C@@H]2C1
Query: Form field 'greater pIC50' accepts P or Q ; which applies? Identify your selection by its label.
Reply: P
(P: 6.21, Q: 5.88)
